B1: DLC1 (parent)
chain: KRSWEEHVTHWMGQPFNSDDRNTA

Variants of: B1
Test: protein stability index of a GFP-peptide fusion (GPS, HEK-293T) (PSI 1-6); higher = more stable;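 note: lentivirally expressed fusions sorted by FACS into six bins by GFP to DsRed ratio, PSI derived from sequencing read proportions per bin multiplied by bin number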
Details: c terminus: a fixed tail appended
ASSAY_METRIC: protein stability index
The answer should be written as a number, with no unit following it.

Solved entries (count: 5):
[
  {
    "SEQ_TEXT": "KRSWEEHVAHWMGQPFNSDDRNTA",
    "OBSERVED_VALUE": 2.97
  },
  {
    "SEQ_TEXT": "KRWWEEHVTHWMGQPFNSDDRNTA",
    "OBSERVED_VALUE": 3
  },
  {
    "SEQ_TEXT": "KRSWEEHVTHWMGCPFNSDDRNTA",
    "OBSERVED_VALUE": 3.01
  },
  {
    "SEQ_TEXT": "KRSWREHVTHWMGQPFNSDDRNTA",
    "OBSERVED_VALUE": 2.64
  },
  {
    "SEQ_TEXT": "KRSTEEHVTHWMGQPFNSDDRNTA",
    "OBSERVED_VALUE": 4.76
  }
]

Field: next variant
Given item KRSWEEHVTHWMGQPFNSMDRNTA , the value recorded as its protein stability index is 2.88
